meta.source: patent US7566739B2

- Experiment: Half-life in human liver microsomes (HLM)
- Type: in vitro ADME
- Experimental context: human liver microsomes (HLM, HL101), 1 μM compound, 0.78 mg/mL HLM, pH 7.4, 37° C., NADPH
Endpoint label: half-life at 1 μM (min)
Output spec: scalar in min, unitless text.

# return recorded half-life at 1 μM for input Cc1cc([C@@H](C)NC(=O)COc2cc(F)c(C(C)(C)C)c(F)c2)ccc1NS(C)(=O)=O [Example 1]
31

Others:
# return recorded half-life at 1 μM for input C[C@@H](NC(=O)COc1cc(F)c(C(C)(C)C)c(F)c1)c1ccc(NS(C)(=O)=O)cc1 [Example 3]
48

# return recorded half-life at 1 μM for input C[C@@H](NC(=O)COc1cc(F)c(C(C)(C)C)c(F)c1)c1ccc(NS(C)(=O)=O)c(F)c1 [Example 2]
12

# return recorded half-life at 1 μM for input C[C@@H](NC(=O)COc1cc(F)c(C(C)(C)C)c(F)c1)c1ccc(NS(C)(=O)=O)c(CO)c1 [Example 4]
5.8

# return recorded half-life at 1 μM for input Cc1cc([C@@H](C)NC(=O)COc2cc(F)c(C(C)(C)C(F)(F)F)c(F)c2)ccc1NS(C)(=O)=O [Example 5]
13
